All values here come from the supplement of paper PMC8728848.

system_tested: Neu5Ac(a2-6)Gal(b1-4)GlcNAc(b1-2)Man(a1-3)Man(b1-4)GlcNAc(b1-4)GlcNAc
protocol: glycan array binding signal (z-score within array); higher = stronger binding
condition_context: glycan notation: IUPAC condensed, linker removed
The full list was thinned out, with the strongest signals kept by preference.
Decision: glycan array binding signal (z-score) compared against -0.3; not below it gives t, below it gives f.

Could you tell me if the measured glycan array binding signal (z-score) of RS2L (Ralstonia solanacearum), B5RXL5_RALSO (protein) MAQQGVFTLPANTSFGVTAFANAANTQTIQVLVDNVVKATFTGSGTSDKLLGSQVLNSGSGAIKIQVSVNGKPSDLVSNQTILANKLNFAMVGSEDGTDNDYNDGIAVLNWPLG reaches -0.3 or more?
t

Try the binder cupB6 (Pseudomonas aeruginosa), Q02SP7 (protein) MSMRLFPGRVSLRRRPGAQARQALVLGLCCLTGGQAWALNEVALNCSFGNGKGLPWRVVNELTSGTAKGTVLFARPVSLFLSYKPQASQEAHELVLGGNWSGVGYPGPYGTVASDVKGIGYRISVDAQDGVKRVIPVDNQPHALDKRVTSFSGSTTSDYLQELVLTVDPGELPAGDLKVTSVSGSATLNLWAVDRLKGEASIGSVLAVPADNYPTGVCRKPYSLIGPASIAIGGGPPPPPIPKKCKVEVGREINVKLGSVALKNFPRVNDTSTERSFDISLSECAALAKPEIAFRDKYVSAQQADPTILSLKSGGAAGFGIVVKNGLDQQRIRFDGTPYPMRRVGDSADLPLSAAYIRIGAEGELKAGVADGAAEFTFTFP
t

Try the binder SSR1 (Sclerotium rolfsii), A0A0M3KL30 (protein) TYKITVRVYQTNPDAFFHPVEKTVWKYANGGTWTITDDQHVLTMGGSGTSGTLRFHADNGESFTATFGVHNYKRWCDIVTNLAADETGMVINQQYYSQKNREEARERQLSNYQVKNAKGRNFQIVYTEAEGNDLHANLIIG
f

Try the binder F17aG (Escherichia coli), Q99003 (protein) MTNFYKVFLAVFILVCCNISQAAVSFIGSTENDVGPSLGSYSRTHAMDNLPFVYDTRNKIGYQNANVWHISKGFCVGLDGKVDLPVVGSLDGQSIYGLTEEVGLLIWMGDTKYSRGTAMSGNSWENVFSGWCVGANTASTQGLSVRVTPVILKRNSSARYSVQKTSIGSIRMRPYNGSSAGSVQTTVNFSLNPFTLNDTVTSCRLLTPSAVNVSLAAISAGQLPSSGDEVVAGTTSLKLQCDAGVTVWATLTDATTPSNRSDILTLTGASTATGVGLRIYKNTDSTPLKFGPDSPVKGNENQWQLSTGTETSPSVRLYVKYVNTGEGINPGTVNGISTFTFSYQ
t
